Origin of the recorded values: the supplement of paper PMC9170038

system: K4 kissing-loop RNA reporter; test: apparent KD of K4 kissing-loop reporter; higher = weaker reporter binding; conditions: Eterna round: R107; input ligand: tryptophan 2.4 mM;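 note: bound reporter read as fluorescence of individual clusters on recovered sequencing chips by microscopy, with normalized cluster intensities fitted with a binding model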
Classify as follows. Reported apparent KD of K4 kissing-loop reporter greater than or equal to 400 nM: satisfied. Reported apparent KD of K4 kissing-loop reporter below: not satisfied.

Solved entries (count: 3):
{"Chain sequence": "CCGAGCCUGACGUAAGUCAGGCUCUGCGAGCGAGGACCGGUACGGCCGCCACUCGGUGCAGUGAUGUUGCAUGGCCGCAAGGCCG [#2 Exclusion - Tryptophan A Attempt #23 (HarryS)]", "Class": "not satisfied"}
{"Chain sequence": "CUGGUGCUGAUGCGGUGGCCGGUGGUCGUGCGAGGACCGGUACGGCCGCCACUCGCAUGAGUGAUGUUCAUGUGUCGUCGUCGUC [whbob_EX_Tryp_A_t1]", "Class": "not satisfied"}
{"Chain sequence": "GCGUUAGUACUCGAUACCAGACCUCUAGUAGUGAUGUUGCUUGGCGAAGGCCUCGAACGAGUCCCUUGGCAGCGAGGAAAGAGGA [theeternabot_sameState_KL_Theo_B_4]", "Class": "satisfied"}

Data request: Item UGGCGAGUGAUGUUCGUUGUUGUAGUGUGUCGAGGACCGGUACGGCCGCCACUCGAGUUGGUUGUUGUUGUUGCUGUUGUUGCUG [#03 K4 Tryptophan A Same State] with apparent KD of K4 kissing-loop reporter of 400 nM or above?
Data returned: not satisfied

Data request: Please check the record UGAUACCAGACGGCCGCCACUGGUGCAGUCAAAGACUGCUAAAACCAAAUCGUGGAGUGAUGUUCCAGGACCGGGUCUGGUAUCU [TrypBX 20 #SwitchBubble #Palindromic #StaticStem] and state if its apparent KD of K4 kissing-loop reporter is at or above 400 nM.
Data returned: satisfied

Data request: Please check the record GCCGUAGAUUGAAGGAGCGGCAUUAACGAUGUUCUGGUAGUGAUGUUACCUCAGCAGACAUGCCAGGUAGGUCGCAAUCUACGGC and state if its apparent KD of K4 kissing-loop reporter is at or above 400 nM.
Data returned: not satisfied

Data request: # bool: apparent KD of K4 kissing-loop reporter of GGGCGCGGCGCGGCCGCCACUGGGCCUGGGCGCUCGCUGAGUGAUGUUCGUCGGCGGCUGGGUCGUAGGACCGGGUGCCGGCUGG [BDazzled - #4 SS Tryptophan B] >= 400 nM
Data returned: not satisfied

* * *

Each item that follows carries a reported apparent KD of MS2 coat protein.
system: MS2 coat protein; experiment: apparent KD of MS2 coat protein; designed switch direction (-1 OFF switch, 1 ON switch): 1; higher = weaker reporter binding; conditions: Eterna round: R95; input ligand: none
Entry rule: numbers only, all in µM.

Record excerpt, results attached:
{"Chain sequence": "AUAAGUUUGAUGCUCGUCUCUCCGUACUAACAUGAGGAUCACCCAUGUGGUCGGGAAGUAGCCCGGCCAGUAUGGCC [Lequteti] (puzzle: Sensor for hsa-mir-208a)", "Tested target": "MS2 coat protein", "Property measured": "apparent KD of MS2 coat protein", "Unit abbreviation": "µM", "Reading": 0.0193}
{"Chain sequence": "UGGUAACAUGAGGAUCACCCAUGUCAAAUGAAUCAAGGAUAUGGGAAAGGAGAAGAGAAACCAGAAGGUGAGGUUG [Altered State 1-15 - Jieux - Same State 1] (puzzle: Same State 1)", "Tested target": "MS2 coat protein", "Property measured": "apparent KD of MS2 coat protein", "Unit abbreviation": "µM", "Reading": 0.167}
{"Chain sequence": "AACAAGUUUUUGCUCGCUUAUAAGCAUGUACAUGAGGAUCACCCAUGUCAUGUACAAAGUCCAGCCUGAGCUGGACA [Reversing mir to lane 1] (puzzle: Sensor for hsa-mir-208a)", "Tested target": "MS2 coat protein", "Property measured": "apparent KD of MS2 coat protein", "Unit abbreviation": "µM", "Reading": 0.0254}
{"Chain sequence": "UACAAUCUAUCUGAGGAUAUCAUGAUUCUAACAUGAGGAUCACCCAUGUGCAGGAAAACUGCAUAUGAGAAGGCAGAUAGAUUGU [salish99_ss2_r3_072] (puzzle: Same State 2)", "Tested target": "MS2 coat protein", "Property measured": "apparent KD of MS2 coat protein", "Unit abbreviation": "µM", "Reading": 0.148}

Next, consider the following sequence.
Data request: Missing value: apparent KD of MS2 coat protein, MS2 coat protein, entry CGUCCAGCCUGAGCUGGACAAAAGCAUGUACAUGAGGAUCACCCAUGUUCAUGUACAAGCUUUUUGCUCGUCUUAGA [salish99_208a_r3_072] (puzzle: Sensor for hsa-mir-208a) . Fill in?
Data returned: 0.432

* * *

system: MS2 coat protein; test: apparent KD of MS2 coat protein; higher = weaker reporter binding; details: Eterna round: R107; input ligand: none
Property measured: apparent KD of MS2 coat protein (nM)
Number only, in nM; omit the unit.

{"Chain sequence": "ACAUGAGGAUCACCCAUGUGGCGUCUUGAUACCAGACCCGAAGUAGUCCCUUGGCAGCAACUACGUGAGGGUCGCCCAUGUGUAG [k'kmullin]", "apparent KD of MS2 coat protein [nM]": 30.4}

Data request: # lookup: apparent KD of MS2 coat protein of UAAAGUAGGUCCAAUAAAACUACAUGUGAAGGAGCGCGCGAAAGCGCAGGUAGGUCGCACAUGAGGAUCACCCAUGUCCUACAAU [MAT - Exclusion Arginine A - Mod of Eli - D17]
Data returned: 51.5

Data request: Given the sequence AAUUAUUUCUCAAUUAUUUAAUCUUCAGAAGGAGCGUGAUGAUUCACAGGUAGGUCGCUGAUGACAUGAGGAUCACCCAUGUAUU [JR_SSArginiA_Sub003] , what is its reported apparent KD of MS2 coat protein?
Data returned: 30.1

Data request: Param item = AGUAUCAGUGGAAGGAGCGUCGCGACUGCCACAUGAGGAUCACCCAUGUCGCCUUGAGCGCGACAGGUAGGUCGCCACGGUAGGC [SS-ArgB2] ; retrieve measured apparent KD of MS2 coat protein.
Data returned: 301

Data request: Which apparent KD of MS2 coat protein value is on record for UAGACGGCCGGAAGGAGCGGUACAUGAGGAUCACCCAUGUAUCUCUGGGCAUCCGUAGAGUGCCAGGUAGGUCGCCGGUUGCGGG [XArg-B22] ?
Data returned: 11

Data request: Requested read-out: apparent KD of MS2 coat protein. Entry: UCUUGAGUUUCGGAUACCAGUGUUGUCGAUACAUGAGGAUCACCCAUGUUAGAGGAUGUACACCCUUGGCAGCCGGGUGUGGCGG [tftmullin]
Data returned: 14.5

* * *

test system: MS2 coat protein; experiment: apparent KD of MS2 coat protein; designed switch direction (-1 OFF switch, 1 ON switch): -1; higher = weaker reporter binding; details: Eterna round: R95; input ligand: microRNA oligo, concentration not stated
Classify by measured apparent KD of MS2 coat protein: 1 if it is equal to or exceeds 0.06 µM, 0 if it is smaller.

Data request: Check the entry CCGGAAAUAGAGGAUAUAGUACUGGAUACAGUACUAGAAGGCUAUACAUGAGGAUCACCCAUGUGUCCUACCGG [Fiskers Ex 6 - 62] (puzzle: Exclusion 6) : does apparent KD of MS2 coat protein equal or exceed 0.06 µM?
Data returned: 0

Data request: Quick check: does CUCUUGUUAGGAUAUCAAACCGGCGGCGGAGCCGCCGGAAGUGAGAAGGGACAUGAGGAUCACCCAUGUAAGAA [Maorgees] (puzzle: Exclusion 4) have apparent KD of MS2 coat protein greater than or equal to 0.06 µM?
Data returned: 0

Data request: Exam item: decide whether the reported apparent KD of MS2 coat protein for ACCUCACAUGAGGAUCACCCAUGUCAGGAUAUGUACCUAGCCAAAACAAAGGCCAGAAGCAGAAGGGACUGCGG [Ralerezara] (puzzle: Exclusion 1) is at least 0.06 µM.
Data returned: 0

Data request: Determine whether this sequence has apparent KD of MS2 coat protein no lower than 0.06 µM: GAUUAUGCGAGCUUUAGGGACAUGAGGAUCACCCAUGUUCGUCUUAUUGGUCUGAGUACACUGACAUACCUAAAUCU [JMF 63] (puzzle: Sensor v3, turn-off variant 1)
Data returned: 0

Data request: Does apparent KD of MS2 coat protein meet or surpass 0.06 µM for AGAAAUGCCCGUGACCACAAGCUUUUUGCUUGUCUUACUACAUGAGGAUCACCCAUGUAACAUGGGCUCCUGACAAU [Maleisar] (puzzle: Sensor v3, turn-off variant 2) ?
Data returned: 0

Data request: Is reported apparent KD of MS2 coat protein greater than or equal to 0.06 µM here: ACGUUUUUUGAGGAUAUGCGAUAGUUUUAUAUCGUAGAAGGCGAUACAUGAGGAUCACCCAUGUUUAUGGGCAU [LRO-Ex6-20] (puzzle: Exclusion 6)
Data returned: 1

Data request: Reported apparent KD of MS2 coat protein at or above 0.06 µM? AAUACAAGCAAGAUCCUAAACAUGAGGAUCACCCAUGUGCUCGUCUUAUAAAGUACUAUCACGAAAGUGAUAGUACA [Sensor 3, v1 - 63] (puzzle: Sensor v3, turn-off variant 1)
Data returned: 1

Data request: Say whether CUUCUCGUUGUGAGGAUAUCGUUUUCGUCUCGGAUCGAGAAGGCACAUGAGGAUCACCCAUGUUUGUUGUGGUU [JR_BMOE4_Sub090] (puzzle: Brourd's mod of Exclusion 4) shows apparent KD of MS2 coat protein of 0.06 µM or more.
Data returned: 1

Data request: Check if apparent KD of MS2 coat protein >= 0.06 µM (inclusive). Item: CGUGUGUGAGGAUAUGACAAUGGUAUCUUCGGAUACCAUUGUCAGAAGGUACAUGAGGAUCACCCAUGUAGAUC [Exclusion 4 - Mod Brourd Ex 4-3: 20 v.2] (puzzle: Exclusion 4)
Data returned: 0

Data request: # bool: apparent KD of MS2 coat protein of CUAUUGGCAGGAUAUGCUUUUUUUGACAUGAGGAUCACCCAUGUGAUGCAUUUUGGGUUUGCAGAAGGGCCUGAGU [JR_E5_Sub037] (puzzle: Exclusion 5) >= 0.06 µM
Data returned: 1
